// melting point lookup, one value per entry

{"columns": ["Compound", "melting point"],
 "data": [
  ["CCOCc1nc2c(N)nc3cc(-c4cccnc4)ccc3c2n1CCCCCS(=O)(=O)NC", "191 to 192 °C"],
  ["CC(C)Cn1cnc2c(N)nc3ccc(C=Cc4ccccc4)cc3c21", "228 to 230 °C"],
  ["CCOCc1nc2c(N)nc3cc(-c4cccnc4)ccc3c2n1CC1CCN(C(=O)N2CCOCC2)CC1 (hydrate or solvate)", "224 to 225 °C"],
  ["CCCc1nc2c(N)nc3ccc(Cc4ccccc4)cc3c2n1CC(C)(C)O", "191 to 192 °C"],
  ["CCc1nc2c(N)nc3ccc(-c4ccccc4)cc3c2n1CC(C)C", "233 to 235 °C"],
  ["CC(C)Cn1cnc2c(N)nc3ccc(CCc4ccccc4)cc3c21", "175 to 178 °C"],
  ["COCCc1nc2c(N)nc3cc(-c4ccncc4)ccc3c2n1CCCN1CCCC1=O", "232 to 235 °C"],
  ["CCc1nc2c(N)nc3cc(-c4cccnc4)ccc3c2n1CC1CCN(C(=O)OC(C)(C)C)CC1", "229 to 231 °C"]
]}
